A collection of binders and their measured Inhibition of PAD2: value at 40 µM inhibitor (0 µM: 76)
# system: recombinant human PAD2 (human, UniProt Q9Y2J8 1-665)
# Sequence (Q9Y2J8 whole entry): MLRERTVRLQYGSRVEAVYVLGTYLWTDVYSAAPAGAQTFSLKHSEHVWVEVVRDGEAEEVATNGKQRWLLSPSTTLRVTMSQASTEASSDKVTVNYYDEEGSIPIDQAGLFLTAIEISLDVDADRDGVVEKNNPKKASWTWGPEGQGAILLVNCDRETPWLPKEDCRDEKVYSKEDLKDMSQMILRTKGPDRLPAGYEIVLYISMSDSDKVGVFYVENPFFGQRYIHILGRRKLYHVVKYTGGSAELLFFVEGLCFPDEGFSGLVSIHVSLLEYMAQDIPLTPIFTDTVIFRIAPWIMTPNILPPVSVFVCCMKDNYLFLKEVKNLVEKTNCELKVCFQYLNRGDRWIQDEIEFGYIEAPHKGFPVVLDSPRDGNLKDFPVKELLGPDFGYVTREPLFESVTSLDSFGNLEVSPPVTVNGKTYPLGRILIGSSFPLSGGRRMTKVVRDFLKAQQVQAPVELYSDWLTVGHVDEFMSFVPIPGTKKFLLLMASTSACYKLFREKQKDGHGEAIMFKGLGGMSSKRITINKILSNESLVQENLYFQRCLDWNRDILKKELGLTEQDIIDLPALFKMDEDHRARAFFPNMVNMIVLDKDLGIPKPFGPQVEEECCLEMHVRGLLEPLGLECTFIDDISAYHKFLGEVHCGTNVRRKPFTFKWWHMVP
# assay_summary: cell-based or functional assay
Square brackets hold non-standard residues; d marks the D form. * marks the point of attachment. Orn(fluoroacetimidoyl) = N=C(CF)NCCC[C@H](N)C(=O)O; 2Naphthylsulfonyl = O=S(=O)(c1ccc2ccccc2c1)*; AEEA = NCCOCCOCC(=O)O
measure_name: Inhibition of PAD2: value at 40 µM inhibitor (0 µM: 76) (%)

binder	value_reported
2Naphthylsulfonyl-KWH[Orn(fluoroacetimidoyl)]DFF-NH2 (SMILES N=C(CF)NCCC[C@H](NC(=O)[C@H](Cc1c[nH]cn1)NC(=O)[C@H](Cc1c[nH]c2ccccc12)NC(=O)[C@H](CCCCN)NS(=O)(=O)c1ccc2ccccc2c1)C(=O)N[C@@H](CC(=O)O)C(=O)N[C@@H](Cc1ccccc1)C(=O)N[C@@H](Cc1ccccc1)C(N)=O) [0837-30FA]	2
Ac-KWH[Orn(fluoroacetimidoyl)]DFF-NH2 (SMILES CC(=O)N[C@@H](CCCCN)C(=O)N[C@@H](Cc1c[nH]c2ccccc12)C(=O)N[C@@H](Cc1c[nH]cn1)C(=O)N[C@@H](CCCNC(=N)CF)C(=O)N[C@@H](CC(=O)O)C(=O)N[C@@H](Cc1ccccc1)C(=O)N[C@@H](Cc1ccccc1)C(N)=O) [0748-09FA]	8
2Naphthylsulfonyl-KWH[Orn(fluoroacetimidoyl)]DFF[AEEA]-NH2 (SMILES N=C(CF)NCCC[C@H](NC(=O)[C@H](Cc1c[nH]cn1)NC(=O)[C@H](Cc1c[nH]c2ccccc12)NC(=O)[C@H](CCCCN)NS(=O)(=O)c1ccc2ccccc2c1)C(=O)N[C@@H](CC(=O)O)C(=O)N[C@@H](Cc1ccccc1)C(=O)N[C@@H](Cc1ccccc1)C(=O)NCCOCCOCC(N)=O) [0837-28FA]	4
Ac-KWH[Orn(fluoroacetimidoyl)]DFF[AEEA]-NH2 (SMILES CC(=O)N[C@@H](CCCCN)C(=O)N[C@@H](Cc1c[nH]c2ccccc12)C(=O)N[C@@H](Cc1c[nH]cn1)C(=O)N[C@@H](CCCNC(=N)CF)C(=O)N[C@@H](CC(=O)O)C(=O)N[C@@H](Cc1ccccc1)C(=O)N[C@@H](Cc1ccccc1)C(=O)NCCOCCOCC(N)=O) [0837-14FA]	14

The reported measurements were obtained from patent US20110142868A1.
